experimental_system: human recombinant ETB receptor (Homo sapiens)
Construct: expressed in transfected cells; host or cells: CHO cells (microsomal membranes)
Sequence (P24530 27-442): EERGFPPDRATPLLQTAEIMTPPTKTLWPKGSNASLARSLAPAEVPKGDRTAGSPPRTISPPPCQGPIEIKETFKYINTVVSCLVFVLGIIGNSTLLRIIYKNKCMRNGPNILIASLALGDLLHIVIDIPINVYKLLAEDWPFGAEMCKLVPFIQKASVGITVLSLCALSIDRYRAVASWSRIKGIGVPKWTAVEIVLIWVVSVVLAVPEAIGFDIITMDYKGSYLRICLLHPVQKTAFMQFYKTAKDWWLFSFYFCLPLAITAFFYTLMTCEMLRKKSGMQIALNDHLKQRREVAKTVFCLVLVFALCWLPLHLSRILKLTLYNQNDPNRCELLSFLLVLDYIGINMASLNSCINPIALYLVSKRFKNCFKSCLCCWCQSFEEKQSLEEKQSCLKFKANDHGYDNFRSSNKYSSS
assay_method_text: Inhibition of [125I]ET-1 binding to membranes from CHO cells carrying human ETB receptors
Label Satisfied when IC50 is strictly below 500 nM; otherwise label Not satisfied.

>  <compound>
COc1ccccc1Oc1c(NS(=O)(=O)Nc2ccc(C(C)C)cc2)nc(-c2ccncc2)nc1OCCOc1ncccn1 [Example 4]

>  <label_value>
Not satisfied

$$$$
>  <compound>
COc1ccccc1Oc1c(NS(=O)(=O)NCc2ccccc2)nc(-c2ncccn2)nc1OCCOC(=O)Nc1ccccc1 [Example 43]

>  <label_value>
Satisfied

$$$$
>  <compound>
COc1ccccc1Oc1c(NS(=O)(=O)Nc2ccc(C(C)C)cc2)nc(-c2ccncc2)nc1OCCOc1ccc(C(F)(F)F)cn1 [Example 6]

>  <label_value>
Not satisfied

$$$$
>  <compound>
CSc1cnc(OCCOc2ncnc(NS(=O)(=O)NCc3ccc4c(c3)OCO4)c2-c2ccc(C)cc2)nc1 [Example 147]

>  <label_value>
Satisfied

$$$$
>  <compound>
COc1cnc(OCCOc2nc(-c3ncccn3)nc(NS(=O)(=O)NCc3ccc(F)cc3)c2Oc2ccccc2OC)nc1 [Example 143]

>  <label_value>
Satisfied

$$$$
>  <compound>
COc1ccccc1CNS(=O)(=O)Nc1nc(-c2ncccn2)nc(OCCOc2ncc(Br)cn2)c1Oc1ccccc1OC [Example 174]

>  <label_value>
Satisfied

$$$$
>  <compound>
COc1ccc(Cl)c(Oc2c(NS(=O)(=O)NCc3ccccc3)ncnc2OCCO)c1 [Example 211]

>  <label_value>
Not satisfied

$$$$
>  <compound>
COc1ccccc1Oc1c(NS(=O)(=O)NCC2CCCCC2)nc(-c2ccncc2)nc1OCCOc1ncc(Br)cn1 [Example 130]

>  <label_value>
Satisfied

$$$$
>  <compound>
COc1cnc(OCCOc2nc(-c3ccncc3)nc(NS(=O)(=O)NCC3CCCCC3)c2Oc2ccccc2OC)nc1 [Example 131]

>  <label_value>
Satisfied

$$$$
>  <compound>
C=CCOc1nc(-c2ccncc2)nc(NS(=O)(=O)Nc2ccc(C(C)C)cc2)c1Oc1ccccc1OC [Example 2]

>  <label_value>
Not satisfied

$$$$
>  <compound>
CCCCNS(=O)(=O)Nc1ncnc(OCCOc2ncc(Br)cn2)c1-c1ccc(Cl)cc1 [Example 117]

>  <label_value>
Not satisfied

$$$$
>  <compound>
CSc1cnc(OCCOc2ncnc(NS(=O)(=O)NCc3ccccc3)c2-c2ccc(Br)cc2)nc1 [Example 102]

>  <label_value>
Satisfied

$$$$
